Listing: log10(K) of selected compounds
- assay-text: Rate constants determined using 31P NMR Kinetics experiments at 37 degrees Centigrade
- Format: ADME
In plain terms, each number is the log10 of measured K in min⁻¹.

Consider the reported log10(K) for these compounds:
| compound | endpoint-result |
| --- | --- |
| Cc1cn([C@H]2C[C@H](O)[C@@H](COP(=O)(O)On3nnc4ccccc43)O2)c(=O)[nH]c1=O | -2.38 |
| CCN(CC)CC.Cc1cn([C@H]2C[C@H](O)[C@@H](COP(=O)(O)N(C)CCBr)O2)c(=O)[nH]c1=O | -0.72 |
| O=P(O)(OCC1CCCO1)On1nnc2ccccc21 (configuration not stated) | -1.96 |
| COP(=O)(OCC1CCCO1)N(C)CCO (configuration not stated) | -0.37 |
| Cc1cn([C@H]2C[C@H](O)[C@@H](COP(=O)(On3nnc4ccccc43)N(C)CCBr)O2)c(=O)[nH]c1=O (some centres not stated) | -0.82 |

Q) Suppose we examine the compound Cc1cn([C@H]2C[C@H](O)[C@@H](COP(=O)(O)N(C)CCBr)O2)c(=O)[nH]c1=O ; what log10(K) value has been reported?
A) -0.70

Q) Suppose we examine the compound CN(CCBr)P(=O)(OCC1CCCO1)On1nnc2ccccc21 (configuration not stated) ; what log10(K) value has been reported?
A) -1.03
